# EXPERIMENTAL_SYSTEM: recombinant human PAD4 (human, UniProt Q9UM07 1-663)
# Sequence (Q9UM07 whole entry): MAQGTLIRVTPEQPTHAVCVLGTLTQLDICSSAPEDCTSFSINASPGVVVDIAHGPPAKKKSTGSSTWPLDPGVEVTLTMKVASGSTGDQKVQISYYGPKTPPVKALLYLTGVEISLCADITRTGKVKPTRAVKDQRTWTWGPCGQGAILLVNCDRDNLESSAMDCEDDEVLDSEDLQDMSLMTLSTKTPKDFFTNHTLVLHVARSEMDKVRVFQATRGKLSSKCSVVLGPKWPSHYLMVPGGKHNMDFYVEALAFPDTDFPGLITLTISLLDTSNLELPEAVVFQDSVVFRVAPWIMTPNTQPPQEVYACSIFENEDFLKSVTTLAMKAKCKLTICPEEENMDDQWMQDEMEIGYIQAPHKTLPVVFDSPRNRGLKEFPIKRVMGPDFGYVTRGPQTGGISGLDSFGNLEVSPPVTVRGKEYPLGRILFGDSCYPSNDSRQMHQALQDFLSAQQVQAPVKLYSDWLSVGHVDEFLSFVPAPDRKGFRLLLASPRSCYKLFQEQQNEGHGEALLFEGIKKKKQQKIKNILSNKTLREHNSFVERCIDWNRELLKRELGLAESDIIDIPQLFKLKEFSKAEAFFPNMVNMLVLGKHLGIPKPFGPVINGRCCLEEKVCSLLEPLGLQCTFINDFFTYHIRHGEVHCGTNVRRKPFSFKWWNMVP
# EXPERIMENT_NOTES: cell-based or functional assay
Square brackets hold non-standard residues; d marks the D form. Orn(fluoroacetimidoyl) = N=C(CF)NCCC[C@H](N)C(=O)O
QUANTITY_KIND: conversion of 0708-30 by PAD4, 10 µM inhibitor (0 µM: 81) (%)

Ac-KWH[Orn(fluoroacetimidoyl)]DFF-NH2 (SMILES CC(=O)N[C@@H](CCCCN)C(=O)N[C@@H](Cc1c[nH]c2ccccc12)C(=O)N[C@@H](Cc1c[nH]cn1)C(=O)N[C@@H](CCCNC(=N)CF)C(=O)N[C@@H](CC(=O)O)C(=O)N[C@@H](Cc1ccccc1)C(=O)N[C@@H](Cc1ccccc1)C(N)=O) [0748-09FA] : 51
